Property: pIC50; scope: individual compounds
System: Plasmodium falciparum
Assay: Inhibition of [3H]hypoxanthine uptake in Plasmodium falciparum 3D7
Format: functional, organism-based
Conditions: 3D7, 48 h
pIC50 is a log-scale quantity: -log10 of the concentration expressed in molar.

Form: Entry = Sc1ncnc2nc[nH]c12 [MERCAPTOPURINE ANHYDROUS] | System = Plasmodium falciparum | pIC50 = ____
5.89

Give recorded pIC50 with Plasmodium falciparum for the following compound: Nc1nc(O)c2[nH]nnc2n1 [8-AZAGUANINE]
5.18

Lookup: pIC50 / Plasmodium falciparum / Nc1nc2[nH]cnc2c(=O)[nH]1 [GUANINE]
4.45

// lookup pIC50 | system=Plasmodium falciparum | key= O=c1[nH]cnc2[nH]nnc12
4.05

What reported pIC50 corresponds to Nc1nc(Cl)c2nc[nH]c2n1 [6-CHLOROGUANINE] on Plasmodium falciparum?
4.17

What value of pIC50 on Plasmodium falciparum does Nc1nc2[nH]cnc2c(=S)[nH]1 [THIOGUANINE] have?
4.67

Please find the next compound below.
Record lookup: for Plasmodium falciparum, what pIC50 belongs to O=c1[nH]cnc2nc[nH]c12 [HYPOXANTHINE] ?
5.38
